meta.source: ChEMBL document CHEMBL4513216

Test system: Plasmodium berghei
test: Screen against P. berghei liver stage (PbLuc), transformed with Luciferase, at 10uM
Assay type: functional, HepG2
experimental_context: tested at 10 uM
Screen size: about 69,000 compounds; about 8,600 (12%) showed an effect of 50% or more. The sample holds strong results, similar compounds and a random draw of the others, so the mix is not that of the screen.
Use yes (1) when the recorded INHIBITION is no lower than 20%; use no (0) when it is lower.

molecule	class
Cc1csc2ncc(-c3ccnc(NC4CCOCC4)n3)c(=O)n12	no (0)
COc1ccc(-c2cc(C3CCCCCN3S(=O)(=O)N(C)C)on2)cc1 (stereo not given)	yes (1)

Could you now consider this next molecule?
Is the recorded value of INHIBITION equal to or greater than 20% for this molecule? "CC(C)n1nnc2c(sc3nc(N4CCOCC4)c4c(c32)CCC4)c1=O"
yes (1)

----------
INHIBITION values by entry
Tested on: Plasmodium berghei
test: Screen against P. berghei liver stage (PbLuc), transformed with Luciferase, at 10uM
Type: functional, HepG2
experimental_context: tested at 10 uM
About 8,600 (12%) of roughly 69,000 compounds showed an effect of 50% or more. The sample holds strong results, similar compounds and a random draw of the others, so the mix is not that of the screen.
Return type: number; implicit unit %.

Known results for compounds:
compound	measured_on	unit_label	reported_measurement
CCCNC(=O)COc1cccc(-c2nc(C(C)C)no2)c1	Plasmodium berghei	%	31.3
Nc1nccc(NCc2cc3n(n2)CCCN(C(=O)C2CCC2)C3)n1	Plasmodium berghei	%	28.5
CC(C)(C(=O)N1CCCC(OCc2cccnc2)C1)n1cccc1 (centres undefined)	Plasmodium berghei	%	23.1
CCc1nn(C)c(Cl)c1CN1CCC2(C1)CN(C)C(=O)O2 (centres undefined)	Plasmodium berghei	%	-73.7
Cc1csc(N2CCN(C(=O)C3(C#N)CCCC3)CC2)n1	Plasmodium berghei	%	-9.75

The measured INHIBITION that Cc1ccsc1C(O)CNC(=O)Cc1ccc(F)cc1 (centres undefined) showed for Plasmodium berghei is 56

The measured INHIBITION that "COCCN1CCOCC12CCN(C(=O)c1ccoc1)CC2" showed for Plasmodium berghei is 21.8

The measured INHIBITION that "Cc1noc(C)c1CN1CC[C@H]2OCC[C@@]2(C(=O)NC2CCCC2)C1" showed for Plasmodium berghei is 17.1

----------
Test system: Plasmodium berghei
test: Screen against P. berghei liver stage (PbLuc), transformed with Luciferase, at 10uM
Assay type: functional, HepG2
experimental_context: tested at 10 uM
The campaign covered roughly 69,000 compounds. About 8,600 (12%) showed an effect of 50% or more. Only a selection was taken, and strong results are over-represented in it overall.
INHIBITION values by entry
Return type: number; implicit unit %.

Known results for molecules:
molecule	INHIBITION, %
CC(=O)N1CC(=O)N(c2ccccc2)CC12CCN(Cc1nccs1)C2 (stereo not drawn)	-0.912
O=C(CC1CC1)N[C@@H]1CN(Cc2ccoc2)C[C@@H]2CCCO[C@@H]21	3.25
c1ccc(-c2cc(CN3C[C@H]4CC[C@@H](C3)N(CC3CCC3)C4)on2)cc1	86.8
Cc1nnc(N2CCOC(C)(C(=O)N(C)C)C2)c2ccccc12 (stereo not drawn)	-9.51
COC(=O)c1ccc(N2CCN(C(=O)c3ccc(O)nc3)C(C)C2)cc1 (stereo not drawn)	2.97
COc1ccc(CN2C[C@@H]3CCCO[C@@H]3[C@H](NC(=O)CC3CC3)C2)cc1	-3.52
O=C(CC1CC1)N[C@@H]1CN(C(=O)c2ccsc2)C[C@@H]2CCCO[C@@H]21	63.8

Here is the next item to consider.
Entry "CN(C)C(=O)COCc1nnc2n1CCN(Cc1ccoc1)C2" — recorded INHIBITION = 45.8
